Record type: pKd measurement. Applies to: KLVFFA (SEQ ID NO: 1) fibers (Homo sapiens, UniProt P05067)
pKd: −log10 of the molar value.

What measured pKd is associated with `O=C1OC2(c3ccccc31)c1cc(Br)c(O)c(Br)c1Oc1c2cc(Br)c(O)c1Br` on KLVFFA (SEQ ID NO: 1) fibers (Homo sapiens, UniProt P05067)?
~4.92

# query: pKd | item `Cc1ccc(O)c(N=Nc2c(O)cc(S(=O)(=O)O)c3ccccc23)c1` | system: KLVFFA (SEQ ID NO: 1) fibers (Homo sapiens, UniProt P05067)
~4.62

Record lookup: for KLVFFA (SEQ ID NO: 1) fibers (Homo sapiens, UniProt P05067), what pKd belongs to O=S(=O)(O)c1cc(S(=O)(=O)O)c2c(/N=N/c3ccccc3)c(O)ccc2c1 [Orange-G, reference compound] ?
~4.37

Recorded values, source patent US20140154180A1.
